molecular target: CBL-B (Homo sapiens); construct: endogenous in cells; host or cells: Jurkat HiBit-IL2 reporter cells, C-CBL knocked out by CRISPR; experiment: Jurkat HiBit-IL2 assay (c-CBL KO), reporter cell line expressing CBL-B only; format: cell-based; settings: C-CBL KO (expressing CBL-B only), geometric mean, Table 16b (further repetition), read-out: C-CBL KO EC50 (nM) GMean
Reported EC50 values follow for various compounds

COMPOUND	TARGET	EC50, nM
C[C@H](NC[C@@H](C)O)c1nc(C(F)(F)F)cc2c(-c3cccc([C@H](c4nncn4C)C4CCC4)c3)n[nH]c12 (single isomer, unassigned)	CBL-B (Homo sapiens)	101
C[C@@H](NC1CC(F)(F)C1)c1nc(C(F)(F)F)cc2c(-c3cccc([C@H](c4nncn4C)C4CCC4)c3)n[nH]c12 (single isomer, unassigned)	CBL-B (Homo sapiens)	41
C[C@@H](c1nc(C(F)(F)F)cc2c(-c3cccc([C@H](c4nncn4C)C4CCC4)c3)n[nH]c12)N1CC[C@H]1CO (single isomer, unassigned)	CBL-B (Homo sapiens)	134
CC(NC[C@H](C)O)c1nccc2c(-c3cccc([C@H](c4nncn4C)C4CCC4)c3)n[nH]c12 (single isomer, unassigned)	CBL-B (Homo sapiens)	348
C[C@H](N[C@@H]1CC[C@H]1O)c1nc(C(F)(F)F)cc2c(-c3cccc([C@H](c4nncn4C)C4CCC4)c3)n[nH]c12 (single isomer, unassigned)	CBL-B (Homo sapiens)	21

====

molecular target: CBL-B (Homo sapiens, UniProt Q13191); construct: endogenous in cells; host or cells: Jurkat HiBit-IL2 reporter cells, C-CBL knocked out by CRISPR; assay: Jurkat HiBit-IL2 assay (c-CBL KO), reporter cell line expressing CBL-B only; format: cell-based; details: c-CBL KO (CBL-B only), anti-CD3/anti-CD28 stimulation 4 hours, geometric mean, Table 16a, read-out: C-CBL KO EC50 (nM) GMean
compounds and their reported EC50

COMPOUND	RELATION_OPERATOR	EC50 (nM)
C[C@@H](N[C@H]1CCC[C@@H]1O)c1nc(C(F)(F)F)cc2c(-c3cccc([C@H](c4nncn4C)C4CCC4)c3)n[nH]c12 (single isomer, unassigned)	=	36
C[C@H](O)CN[C@@H](C)c1nc(C(F)(F)F)cc2c(-c3cccc([C@H](c4nncn4C)C4CCC4)c3)n[nH]c12 (single isomer, unassigned)	=	9
CC(NC1CCC1)c1nc(C2CC2)cc2c(-c3cccc(C4(Cc5nncn5C)COC4)c3)n[nH]c12 (single isomer, unassigned) [Example H4]	=	5
CC(c1nc(C(F)(F)F)cc2c(-c3cccc(C4(Cc5nncn5C)COC4)c3)n[nH]c12)N1CCCCC1 (single isomer, unassigned) [Example C21]	=	152
C[C@@H](N[C@H]1CCOC1)c1nc(C(F)(F)F)cc2c(-c3cccc([C@H](c4nncn4C)C4CCC4)c3)n[nH]c12 (single isomer, unassigned)	>	159

====

biological target: C-CBL (Homo sapiens, UniProt P22681); construct: endogenous in cells; host or cells: Jurkat HiBit-IL2 reporter cells, CBL-B knocked out by CRISPR; assay: Jurkat HiBit-IL2 assay (CBL-B KO), reporter cell line expressing C-CBL only; format: cell-based; settings: CBL-B KO (expressing C-CBL only), geometric mean, Table 16b (further repetition), read-out: CBL-B KO EC50 (nM) GMean
MEASURE_NAME: EC50 (nM)

MOLECULE	NUMERIC_READOUT
C[C@@H](NC(C)(C)CO)c1nc(C(F)(F)F)cc2c(-c3cccc([C@H](c4nncn4C)C4CCC4)c3)n[nH]c12 (single isomer, unassigned)	642
C[C@H](NC[C@@H](C)O)c1nc(C(F)(F)F)cc2c(-c3cccc([C@H](c4nncn4C)C4CCC4)c3)n[nH]c12 (single isomer, unassigned)	359
C[C@H](N[C@@H]1COC[C@H]1O)c1nc(C(F)(F)F)cc2c(-c3cccc([C@H](c4nncn4C)C4CCC4)c3)n[nH]c12 (single isomer, unassigned)	1260

====

Molecular target: C-CBL (46-435) (Homo sapiens)
Construct: N-terminal biotinylated WT CBL-B (36-427) and C-CBL (46-435) were captured on a streptavidin (SA) coated sensor chip
Sequence (P22681 46-435): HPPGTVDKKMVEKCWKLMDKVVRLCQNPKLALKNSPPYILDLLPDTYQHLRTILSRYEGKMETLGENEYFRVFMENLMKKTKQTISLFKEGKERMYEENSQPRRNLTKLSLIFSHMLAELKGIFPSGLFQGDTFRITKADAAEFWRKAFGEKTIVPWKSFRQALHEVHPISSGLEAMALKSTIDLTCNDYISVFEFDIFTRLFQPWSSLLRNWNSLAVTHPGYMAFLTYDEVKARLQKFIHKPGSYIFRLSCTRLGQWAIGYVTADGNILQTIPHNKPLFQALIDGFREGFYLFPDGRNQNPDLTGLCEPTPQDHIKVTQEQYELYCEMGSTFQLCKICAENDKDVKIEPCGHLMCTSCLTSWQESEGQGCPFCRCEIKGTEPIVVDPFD
Assay: Surface Plasmon Resonance (SPR) assay, binding affinity and kinetics, C-CBL
Conditions: SPR at 10° C., biotinylated C-CBL (46-435) on streptavidin chip; geometric mean; read-out: C-CBL SPR Kd (nM) GMean
Reported Kd values follow for various molecules

MOLECULE	READING_UNIT	Kd
C[C@H](CO)c1nc(C(F)(F)F)cc2c(-c3cccc([C@H](c4nncn4C)C4CCC4)c3)n[nH]c12 (single isomer, unassigned)	nM	160
Cn1cnnc1[C@@H](c1cccc(-c2n[nH]c3c(CN4CCNC(=O)C4)nc(C(F)(F)F)cc23)c1)C1CCC1	nM	82.1
C[C@H](N)c1nc(C(F)(F)F)cc2c(-c3cccc([C@H](c4nncn4C)C4CCC4)c3)n[nH]c12	nM	209
CC(N[C@@H]1CCOC1)c1nc(C(F)(F)F)cc2c(-c3cccc(C4(Cc5nncn5C)COC4)c3)n[nH]c12 (single isomer, unassigned) [Example C86]	nM	60.3
C[C@@H]1CCCN([C@H](C)c2nc(C(F)(F)F)cc3c(-c4cccc(C5(Cc6nncn6C)COC5)c4)n[nH]c23)C1 (single isomer, unassigned)	nM	140
Cn1cnnc1CC1(c2cccc(-c3n[nH]c4c(CN5CCNCC5)nc(C(F)(F)F)cc34)c2)COC1	nM	65.2

====

Biological target: C-CBL (residues 46-435) (Homo sapiens)
Construct: Purified CBL-B (residues 36-427) and C-CBL (residues 46-435) proteins from baculovirus-infected insect cells; made in house; host or cells: baculovirus-infected insect cells
Sequence (P22681 46-435): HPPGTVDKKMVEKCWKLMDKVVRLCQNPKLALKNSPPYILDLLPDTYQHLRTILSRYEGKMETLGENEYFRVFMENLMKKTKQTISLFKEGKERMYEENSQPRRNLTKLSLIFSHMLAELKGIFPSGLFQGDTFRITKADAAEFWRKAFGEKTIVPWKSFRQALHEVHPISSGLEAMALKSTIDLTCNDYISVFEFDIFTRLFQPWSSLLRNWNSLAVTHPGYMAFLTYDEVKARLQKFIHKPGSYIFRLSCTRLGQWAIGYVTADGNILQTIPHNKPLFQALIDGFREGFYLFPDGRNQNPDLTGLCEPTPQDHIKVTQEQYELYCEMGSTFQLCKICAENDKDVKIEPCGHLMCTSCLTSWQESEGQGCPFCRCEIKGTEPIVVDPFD
Experiment: Ligand Displacement Assay (LDA), HTRF competitive binding against BODIPY-labeled fluorescent tracer, C-CBL
Details: geometric mean of the number of tests, read-out: C-CBL Ki (nM) GMean
Known Ki of a selection of compounds

COMPOUND	TARGET	Ki, nM
CCNC(C)c1nc(C(F)(F)F)cc2c(-c3cccc([C@H](c4nncn4C)C4CCC4)c3)n[nH]c12 (single isomer, unassigned) [Example C89]	C-CBL (residues 46-435) (Homo sapiens)	105
CC(C)NC(C)c1nc(C(F)(F)F)cc2c(-c3cccc(C4(Cc5nncn5C)COC4)c3)n[nH]c12 (single isomer, unassigned) [Example C80]	C-CBL (residues 46-435) (Homo sapiens)	71.5
C[C@H](NC(=O)OC(C)(C)C)c1nc(C(F)(F)F)cc2c(-c3cccc(C4(Cc5nncn5C)COC4)c3)n[nH]c12	C-CBL (residues 46-435) (Homo sapiens)	133
Cn1cnnc1CC1(c2cccc(-c3n[nH]c4cnc(C(F)(F)F)nc34)c2)COC1	C-CBL (residues 46-435) (Homo sapiens)	2400
Cn1cnnc1[C@@H](c1cccc(-c2n[nH]c3c(CN[C@H]4CC[C@@H](O)C4)nc(C(F)(F)F)cc23)c1)C1CCC1	C-CBL (residues 46-435) (Homo sapiens)	112
Cn1cnnc1[C@@H](c1cccc(-c2n[nH]c3c(CN4CC(F)(F)C4)nc(C(F)(F)F)cc23)c1)C1CCC1	C-CBL (residues 46-435) (Homo sapiens)	1020
C[C@@H](c1nc(C(F)(F)F)cc2c(-c3cccc([C@H](c4nncn4C)C4CCC4)c3)n[nH]c12)N1CC[C@@H](O)C1 (single isomer, unassigned)	C-CBL (residues 46-435) (Homo sapiens)	134
Cn1cnnc1CC1(c2cccc(-c3n[nH]c4c(CN5C[C@@H](F)[C@H](F)C5)nc(C(F)(F)F)cc34)c2)COC1	C-CBL (residues 46-435) (Homo sapiens)	112
C[C@@H]1CCCN([C@@H](C)c2nc(C(F)(F)F)cc3c(-c4cccc(C5(Cc6nncn6C)COC5)c4)n[nH]c23)C1 (single isomer, unassigned)	C-CBL (residues 46-435) (Homo sapiens)	53.6
C[C@H](N[C@@H]1CCC(F)(F)C1)c1nc(C(F)(F)F)cc2c(-c3cccc(C4(Cc5nncn5C)COC4)c3)n[nH]c12 (single isomer, unassigned)	C-CBL (residues 46-435) (Homo sapiens)	24.8
Cn1cnnc1[C@@H](c1cccc(-c2n[nH]c3c(CNC4CCC4)nc(C(F)(F)F)cc23)c1)C1CCC1	C-CBL (residues 46-435) (Homo sapiens)	244
Cn1cnnc1[C@@H](c1cccc(-c2n[nH]c3c(CNC4CCOCC4)nc(C(F)(F)F)cc23)c1)C1CCC1	C-CBL (residues 46-435) (Homo sapiens)	237
Cn1cnnc1CC1(c2cccc(-c3n[nH]c4cnc(OC(F)F)cc34)c2)COC1	C-CBL (residues 46-435) (Homo sapiens)	187
CC(NC[C@H](C)O)c1nc(C(F)(F)F)cc2c(-c3cccc([C@H](c4nncn4C)C4CCCCC4)c3)n[nH]c12 (single isomer, unassigned) [Example C100]	C-CBL (residues 46-435) (Homo sapiens)	40.4
C[C@H](N[C@H]1C[C@H](O)C1)c1nc(C(F)(F)F)cc2c(-c3cccc([C@H](c4nncn4C)C4CCC4)c3)n[nH]c12 (single isomer, unassigned)	C-CBL (residues 46-435) (Homo sapiens)	105
C[C@@H](c1nc(C(F)(F)F)cc2c(-c3cccc([C@H](c4nncn4C)C4CCC4)c3)n[nH]c12)N1CCNC(=O)C1 (single isomer, unassigned)	C-CBL (residues 46-435) (Homo sapiens)	35.2
Cn1cnnc1[C@@H](c1cccc(-c2n[nH]c3c(CN[C@H]4CCC[C@H]4O)nc(C(F)(F)F)cc23)c1)C1CCC1	C-CBL (residues 46-435) (Homo sapiens)	294
Cn1cnnc1[C@@H](c1cccc(-c2n[nH]c3c(CN4CCCCC4)nc(C(F)(F)F)cc23)c1)C1CCC1	C-CBL (residues 46-435) (Homo sapiens)	360
C[C@@H](c1nc(C(F)(F)F)cc2c(-c3cccc(C4(Cc5nncn5C)COC4)c3)n[nH]c12)N1CC[C@H](F)C1 (single isomer, unassigned) [Example D97]	C-CBL (residues 46-435) (Homo sapiens)	139
C[C@H]1CN([C@@H](C)c2nc(C(F)(F)F)cc3c(-c4cccc(C5(Cc6nncn6C)COC5)c4)n[nH]c23)CCO1 (single isomer, unassigned)	C-CBL (residues 46-435) (Homo sapiens)	27.2
CC(NCC(C)(C)O)c1nc(C(F)(F)F)cc2c(-c3cccc([C@H](c4nncn4C)C4CCC4)c3)n[nH]c12 (single isomer, unassigned) [Example C117]	C-CBL (residues 46-435) (Homo sapiens)	83.6
CN1CC[C@H](Oc2nc(C(F)(F)F)cc3c(-c4cccc(C5(Cc6nncn6C)COC5)c4)n[nH]c23)C1	C-CBL (residues 46-435) (Homo sapiens)	58.1
C[C@@H](N[C@H]1CC[C@@H]1O)c1nc(C(F)(F)F)cc2c(-c3cccc([C@H](c4nncn4C)C4CCC4)c3)n[nH]c12 (single isomer, unassigned)	C-CBL (residues 46-435) (Homo sapiens)	5.8
CC(NC(=O)CO)c1nc(C(F)(F)F)cc2c(-c3cccc([C@H](c4nncn4C)C4CCC4)c3)n[nH]c12 (single isomer, unassigned) [Example I1]	C-CBL (residues 46-435) (Homo sapiens)	1.9
